Assay: Cytotoxicity against human PANC1 cells at 10 uM measured after 48 hrs by sulforhodamine B assay relative to control
Assay type: cell-based, PANC-1
Conditions: read-out: INH
Please use the following cytotoxicity at 48 h, 10 µM ranges when assigning a class: zone 1 = under 10%, zone 2 = from 10% up to 20%, zone 3 = 20% and over

{"columns": ["compound", "label.class"],
 "data": [
  ["CCCCc1cn(C(c2ccccc2)c2cc3cc(Br)ccc3nc2OC)nn1 (centres undefined)", "zone 1"],
  ["COc1nc2ccc(Br)cc2cc1C(c1ccccc1)n1cc(-c2ccccc2C(F)(F)F)nn1 (centres undefined)", "zone 2"],
  ["COc1nc2ccc(Br)cc2cc1C(c1ccccc1)n1cc(C2CC2)nn1 (centres undefined)", "zone 3"],
  ["COc1nc2ccc(Br)cc2cc1C(c1ccccc1)n1cc(-c2ccc(Br)cc2)nn1 (centres undefined)", "zone 2"]
]}

Band for COc1nc2ccc(Br)cc2cc1C(c1ccccc1)n1cc(CCCO)nn1 (centres undefined) ? zone 3

Using the reported cytotoxicity at 48 h, 10 µM, which band applies to COc1nc2ccc(Br)cc2cc1C(c1ccccc1)n1cc(-c2ccccc2)nn1 (centres undefined) ? zone 3

Hey, which category is COc1nc2ccc(Br)cc2cc1C(c1ccccc1)n1cc(-c2ccc(OC(F)(F)F)cc2)nn1 (centres undefined) in, do you know? zone 2

Textbook exercise: identify the category of the compound given here, COc1nc2ccc(Br)cc2cc1C(c1ccccc1)n1cc(CO)nn1 (centres undefined) , according to its measured value. zone 2
